# credit: patent EP1192131B1

Biological target: Aβ(1-40) (Homo sapiens, UniProt P05067)
Sequence (P05067 672-711): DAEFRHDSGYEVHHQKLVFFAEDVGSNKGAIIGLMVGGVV
Test: BASST (Beta-Amyloid Self-seeding, ThioflavinT), inhibition of self-seeded amyloid fibril growth
Type: biochemical
Parameters: 30 µM soluble Aβ (1-40) in deionized water in assay buffer
Conditions: 30 µM soluble Aβ (1-40), 37°C, 3 to 5 hours, thioflavin T fluorescence; letter in parentheses = lot of compound (no letter = Lot P); read-out: BASST IC50 (converted)
MEASURED_METRIC: IC50 (nM)

Below are worked cases with known answers.
SMI: O=C(O)c1cc([N+](=O)[O-])ccc1Nc1ccc2c(c1)CN(c1ccc(Cl)c(Cl)c1)C2
ASSAY_SYSTEM: Aβ(1-40) (Homo sapiens, UniProt P05067)
IC50 (nM): 3000
//
SMI: Nc1ccc(Nc2ccc3c(c2)CN(c2ccc(Cl)c(Cl)c2)C3)c(C(=O)O)c1
ASSAY_SYSTEM: Aβ(1-40) (Homo sapiens, UniProt P05067)
IC50 (nM): 1500
//
SMI: Clc1ccc(N2Cc3ccc(Nc4ccccc4-c4nnn[nH]4)cc3C2)cc1Cl
ASSAY_SYSTEM: Aβ(1-40) (Homo sapiens, UniProt P05067)
IC50 (nM): 1800
//
SMI: O=C(O)c1ccccc1Nc1ccc2c(c1)CN(c1ccc(Cl)c(Cl)c1)C2
ASSAY_SYSTEM: Aβ(1-40) (Homo sapiens, UniProt P05067)
IC50 (nM): 2000
//
SMI: COc1cccc(N2Cc3ccc(Nc4ccccc4C(=O)O)cc3C2)c1
ASSAY_SYSTEM: Aβ(1-40) (Homo sapiens, UniProt P05067)
IC50 (nM): 10000
//
SMI: Cc1ccc(N2Cc3ccc(Nc4ccc([N+](=O)[O-])cc4C(=O)O)cc3C2)cc1C
ASSAY_SYSTEM: Aβ(1-40) (Homo sapiens, UniProt P05067)
IC50 (nM): 1100

I: COc1cc(N2Cc3ccc(Nc4ccccc4C#N)cc3C2)cc(OC)c1OC
II: O=C(O)c1cc([N+](=O)[O-])ccc1Nc1ccc2c(c1)CN(c1ccc(Cl)cc1)C2
Input line: Could you please tell me which of these two has the higher IC50: I or II ? Please respond with the label that marks your chosen entry.
Output line: I
(I: 15000 nM, II: 600 nM)

1: COc1cccc(N2Cc3ccc(Nc4ccc([N+](=O)[O-])cc4C(=O)O)cc3C2)c1
2: O=C(O)c1cc([N+](=O)[O-])ccc1Nc1ccc2c(c1)CN(c1cccc(F)c1)C2
Input line: Between item 1 and item 2 , which reported IC50 is smaller? // respond with label for picked entry
Output line: 1
(1: 700 nM, 2: 2000 nM)

* * *

Molecular target: Aβ (1-42) (Homo sapiens)
Construct: Required Aβ (1-42)(California Peptide) was dried from its hexafluoroisopropanol (HFIP) stock solution; purchased California Peptide
Assay: BATYM assay, Aβ (1-42) aggregation, Thioflavin T fluorescence
Assay type: biochemical
Details: read-out: BATYM IC50, Aβ 1-42 final concentration 100 µM, 37°C, 1 day, letter in parentheses = lot of compound (no letter = Lot P)
Listed here are compounds together with their documented IC50.
Hi! Could you send only the number? It should be in µM, unit omitted.

Before answering, review these 3 worked examples.
COMPOUND: O=C(O)c1cc([N+](=O)[O-])ccc1Nc1ccc2c(c1)CN(c1ccc(Cl)c(C(F)(F)F)c1)C2 [Example 19]
ASSAY_SYSTEM: Aβ (1-42) (Homo sapiens)
IC50 [µM]: 12.8
//
COMPOUND: O=C(O)c1cc([N+](=O)[O-])ccc1Nc1ccc2c(c1)CN(c1cccc(Cl)c1)C2 [Example 11]
ASSAY_SYSTEM: Aβ (1-42) (Homo sapiens)
IC50 [µM]: 12.6
//
COMPOUND: O=C(O)c1cc([N+](=O)[O-])ccc1Nc1ccc2c(c1)CN(c1cccc(Cl)c1)C2 [Example 14]
ASSAY_SYSTEM: Aβ (1-42) (Homo sapiens)
IC50 [µM]: 12.6

Input line: For the compound O=C(O)c1ccccc1Nc1ccc2c(c1)CN(c1ccc(Cl)c(C(F)(F)F)c1)C2 [Example 10] , what IC50 is on record?
Output line: 34.6

* * *

Target: Aβ (1-40) peptide (Homo sapiens, UniProt P05067)
Construct: 10 µL 0.5 mg/mL Aβ (1-40) peptide in 20% HFIP
Assay: BAPA (Beta-Amyloid Peptide Aggregation, pH 6.0), filtration endpoint assay
Type: biochemical
Details: Aβ (1-40) 33 µM, pH 6.0, 2 to 4 hours at room temperature; letter in parentheses = lot of compound (no letter = Lot P); read-out: BAPA IC50
pIC50: −log10 of the molar value.
MEASURED_METRIC: pIC50

SMI: O=C(O)c1cc(F)ccc1Nc1ccc2c(c1)CN(c1ccc(Cl)c(Cl)c1)C2
ASSAY_SYSTEM: Aβ (1-40) peptide (Homo sapiens, UniProt P05067)
pIC50: 4.21

A: Nc1ccc(Nc2ccc3c(c2)CN(c2ccc(Cl)c(Cl)c2)C3)c(C(=O)O)c1
B: Clc1ccc(N2Cc3ccc(Nc4ccccc4-c4nnn[nH]4)cc3C2)cc1Cl
Input line: Between A and B , whose measured pIC50 reads higher? Kindly give the label for the entry you pick.
Output line: A
(A: 4.40, B: 4.07)

* * *

Biological target: Aβ (1-40) peptide (Homo sapiens)
Construct: 10 µL 0.5 mg/mL Aβ (1-40) peptide in 20% HFIP
Experiment: BAPA (Beta-Amyloid Peptide Aggregation, pH 6.0), filtration endpoint assay
Assay type: biochemical
Conditions: read-out: BAPA IC50; Aβ (1-40) 33 µM, pH 6.0, 2 to 4 hours at room temperature; letter in parentheses = lot of compound (no letter = Lot P)
From the text: BAPA (Beta-Amyloid Peptide Aggregation This assay is used to provide a measure of inhibition by a compound against the aggregation behavior of the beta amyloid peptide. The purpose of this assay is to provide a higher volume method of assaying the amount of beta amyloid aggregation using an endpoint assay based on filtration. […]
pIC50: −log10 of the molar value.
We begin with a simple list: items and their reported pIC50.

Solved entries (count: 3):
MOLECULE: O=C(O)c1cc([N+](=O)[O-])ccc1Nc1ccc2c(c1)CN(c1ccc(Cl)c(C(F)(F)F)c1)C2
MEASURED_METRIC: pIC50
MEASUREMENT: < 5.00

MOLECULE: O=C(O)c1ccccc1Nc1ccc2c(c1)CN(c1ccc(Cl)c(C(F)(F)F)c1)C2
MEASURED_METRIC: pIC50
MEASUREMENT: 4.80

MOLECULE: O=C(O)c1cc([N+](=O)[O-])ccc1Nc1ccc2c(c1)CN(c1cccc(Cl)c1)C2 [Example 11]
MEASURED_METRIC: pIC50
MEASUREMENT: < 4.00

API: the following record is the query input.
Input line: Consider the molecule shown here: O=C(O)c1cc([N+](=O)[O-])ccc1Nc1ccc2c(c1)CN(c1cccc(Cl)c1)C2 [Example 14] What is its recorded pIC50?
Output line: < 4.00

* * *

Target: Aβ (1-40) peptide (Homo sapiens)
Construct: 10 µL 0.5 mg/mL Aβ (1-40) peptide in 20% HFIP
Experiment: BAPA (Beta-Amyloid Peptide Aggregation, pH 6.0), filtration endpoint assay
Assay type: biochemical
Conditions: Aβ (1-40) 33 µM, pH 6.0, 2 to 4 hours at room temperature; letter in parentheses = lot of compound (no letter = Lot P); read-out: BAPA IC50
MEASURED_METRIC: IC50 (µM)

SMI: O=C(O)c1cc([N+](=O)[O-])ccc1Nc1ccc2c(c1)CN(c1ccccc1)C2
QUANTITY_UNIT: µM
MEASUREMENT: 97
//
SMI: COc1cc(Nc2ccc3c(c2)CN(c2ccc(Cl)c(Cl)c2)C3)c(C(=O)O)cc1[N+](=O)[O-]
QUANTITY_UNIT: µM
MEASUREMENT: 14

1: COc1ccc(N2Cc3ccc(Nc4ccccc4C(=O)O)cc3C2)c(OC)c1OC
2: COc1cc(N2Cc3ccc(Nc4ccccc4C#N)cc3C2)cc(OC)c1OC
3: Cc1ccc(N2Cc3ccc(Nc4ccc([N+](=O)[O-])cc4C(=O)O)cc3C2)cc1C
Input line: Rank order required: IC50, descending. # list labels per requested ordering
Output line: 1, 2, 3
(1: 72 µM, 2: 25 µM, 3: 5 µM)

* * *

Target: Aβ (1-42) (Homo sapiens, UniProt P05067)
Construct: Required Aβ (1-42)(California Peptide) was dried from its hexafluoroisopropanol (HFIP) stock solution; purchased California Peptide
Sequence (P05067 672-713): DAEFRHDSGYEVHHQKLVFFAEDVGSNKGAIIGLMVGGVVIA
Assay: BATYM assay, Aβ (1-42) aggregation, Thioflavin T fluorescence
Type: biochemical
Settings: Aβ 1-42 final concentration 100 µM, 37°C, 1 day, letter in parentheses = lot of compound (no letter = Lot P), read-out: BATYM IC50
MEASURED_METRIC: IC50 (µM)

Consider the worked cases shown below.
SMI: O=C(O)c1cc([N+](=O)[O-])ccc1Nc1ccc2c(c1)CN(c1cccc(F)c1)C2
ASSAY_SYSTEM: Aβ (1-42) (Homo sapiens, UniProt P05067)
IC50 (µM): 11.5
//
SMI: O=C(O)c1cc([N+](=O)[O-])ccc1Nc1ccc2c(c1)CN(c1ccc(Cl)cc1)C2
ASSAY_SYSTEM: Aβ (1-42) (Homo sapiens, UniProt P05067)
IC50 (µM): 32.5

A: O=C(O)c1cc([N+](=O)[O-])ccc1Nc1ccc2c(c1)CN(c1ccc(Cl)c(Cl)c1)C2
B: COc1cccc(N2Cc3ccc(Nc4ccccc4C(=O)O)cc3C2)c1
Input line: // compare measured IC50 between A and B ; output the lower one Your choice should be expressed through its label.
Output line: A
